Numbers sourced from ChEMBL document CHEMBL1124650.

# ASSAY_TARGET: Muscarinic acetylcholine receptor M3 (Cavia porcellus)
# ASSAY_OVERVIEW: Antagonist potency against carbachol induced contractions of isolated guinea pig ileum Muscarinic acetylcholine receptor
# Type: functional, tissue-based
# MEASUREMENT_CONDITIONS: read-out: pA2 (converted)
PROPERTY_NAME: Kb (nM)

>  <LINE_NOTATION>
Clc1ccc(CNCCCCCCNCCCCCCCCNCCCCCCNCc2ccc(Cl)cc2)cc1

>  <PROPERTY_NAME>
Kb

>  <UNIT_OF_MEASURE>
nM

>  <ASSAY_VALUE>
2340

$$$$

I: Clc1ccccc1CNCCCCCCNCCCCCCCCNCCCCCCNCc1ccccc1Cl
II: c1coc(CNCCCCCCNCCCCCCCCNCCCCCCNCc2ccco2)c1
III: COc1ccccc1CNCCCCCCNCCCCCCCCCCCCCCNCCCCCCNCc1ccccc1OC
# input Order the items by recorded Kb; the first position goes to the largest value. I would appreciate it if you listed the labels in the requested order.
# output I, III, II
(I: 2820 nM, III: 1410 nM, II: 851 nM)

----------
# ASSAY_TARGET: UniProtKB Q8VH26
# ASSAY_OVERVIEW: Antagonist potency against carbachol induced contractions of isolated guinea pig ileum Muscarinic acetylcholine receptor
# Type: functional, tissue-based
# MEASUREMENT_CONDITIONS: read-out: pA2 (converted)
PROPERTY_NAME: Kb (µM)

>  <LINE_NOTATION>
COc1ccccc1CNCCCCCNCCCCCCCCNCCCCCNCc1ccccc1OC

>  <UNIT_OF_MEASURE>
µM

>  <Kb>
2.45

$$$$

A: Cc1ccc(CNCCCCCCNCCCCCCCCNCCCCCCNCc2ccc(C)cc2)cc1
B: COc1ccccc1CNCCCCCCNCCCCCCCCCCCCCNCCCCCCNCc1ccccc1OC
# input // select label with min value of measured Kb from [ A , B ] Kindly state the label of the option you pick.
# output B

----------
# ASSAY_TARGET: Muscarinic acetylcholine receptor M2 (Cavia porcellus)
# ASSAY_OVERVIEW: Antagonist potency against muscarinic receptors was assed by antagonism of carbachol induced inhibition of electrically stimulated guinea pig atria
# MEASUREMENT_CONDITIONS: read-out: pA2 (converted)
PROPERTY_NAME: Kb (nM)

Observe how each entry below is paired with its result.
>  <LINE_NOTATION>
COc1ccccc1CNCCCCCCN(C)CCCCCCCCN(C)CCCCCCNCc1ccccc1OC

>  <Kb, nM>
10.2

$$$$
>  <LINE_NOTATION>
COc1ccccc1CN(C)CCCCCCNCCCCCCCCNCCCCCCN(C)Cc1ccccc1OC

>  <Kb, nM>
166

$$$$

I: c1cncc(CNCCCCCCNCCCCCCCCNCCCCCCNCc2cccnc2)c1
II: Cc1ccc(CNCCCCCCNCCCCCCCCNCCCCCCNCc2ccc(C)o2)o1
III: COc1ccccc1CN(C)CCCCCCN(C)CCCCCCCCN(C)CCCCCCN(C)Cc1ccccc1OC
IV: c1ccc(CNCCCCCCNCCCCCCCCNCCCCCCNCc2ccccn2)nc1
# input Sort these compounds on Kb so the largest reading comes first. List the labels, following the order given in the request.
# output I, III, IV, II
(I: 288 nM, III: 162 nM, IV: 53.7 nM, II: 8.91 nM)

----------
# ASSAY_TARGET: Muscarinic acetylcholine receptor M3 (Cavia porcellus, UniProt Q8VH26)
# Sequence (Q8VH26 whole entry): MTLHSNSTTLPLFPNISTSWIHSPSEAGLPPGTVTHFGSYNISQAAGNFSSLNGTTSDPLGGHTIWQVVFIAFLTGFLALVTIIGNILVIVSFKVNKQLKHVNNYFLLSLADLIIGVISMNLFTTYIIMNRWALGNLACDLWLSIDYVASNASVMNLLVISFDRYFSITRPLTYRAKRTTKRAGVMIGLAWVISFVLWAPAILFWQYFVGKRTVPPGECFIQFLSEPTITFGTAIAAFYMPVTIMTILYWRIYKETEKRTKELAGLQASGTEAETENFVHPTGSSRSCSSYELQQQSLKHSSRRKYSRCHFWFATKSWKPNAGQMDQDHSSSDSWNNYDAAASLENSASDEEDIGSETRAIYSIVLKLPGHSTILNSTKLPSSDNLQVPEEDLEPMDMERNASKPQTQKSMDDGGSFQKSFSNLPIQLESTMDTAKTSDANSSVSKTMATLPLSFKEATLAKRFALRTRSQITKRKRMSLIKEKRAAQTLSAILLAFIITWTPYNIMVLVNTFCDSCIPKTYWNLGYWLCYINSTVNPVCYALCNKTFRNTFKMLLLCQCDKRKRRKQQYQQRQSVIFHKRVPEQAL
# ASSAY_OVERVIEW: Antagonist potency against carbachol induced contractions of isolated guinea pig ileum Muscarinic acetylcholine receptor
# Type: functional, tissue-based
# MEASUREMENT_CONDITIONS: read-out: pA2 (converted)
PROPERTY_NAME: Kb (µM)

# count of solved cases: 6
>  <COMPOUND>
COc1ccccc1CNCCCCCCCNCCCCCCCCNCCCCCCCNCc1ccccc1OC

>  <Kb / µM>
0.646

$$$$
>  <COMPOUND>
COc1ccc(CNCCCCCCNCCCCCCCCNCCCCCCNCc2ccc(OC)cc2)cc1

>  <Kb / µM>
2.75

$$$$
>  <COMPOUND>
O=[N+]([O-])c1ccc(CNCCCCCCNCCCCCCCCNCCCCCCNCc2ccc([N+](=O)[O-])cc2)cc1

>  <Kb / µM>
1.32

$$$$
>  <COMPOUND>
c1ccc(CNCCCCCCNCCCCCCCCNCCCCCCNCc2ccccc2)cc1

>  <Kb / µM>
2.19

$$$$
>  <COMPOUND>
Cc1ccccc1CNCCCCCCNCCCCCCCCNCCCCCCNCc1ccccc1C

>  <Kb / µM>
2

$$$$
>  <COMPOUND>
Fc1ccc(CNCCCCCCNCCCCCCCCNCCCCCCNCc2ccc(F)cc2)cc1

>  <Kb / µM>
2.4

$$$$

1: COc1ccccc1CNCCCCCCNCCCCCCCCNCCCCCCNCc1ccccc1OC [METHOCTRAMINE]
2: COc1ccccc1CNCCCCCCNCCCCCCCCCCCNCCCCCCNCc1ccccc1OC
# input Please compare: 1 and 2 . Report which one has the smaller Kb value. I would appreciate it if you answered with the label of your choice.
# output 1

1: CSc1ccccc1CNCCCCCCNCCCCCCCCNCCCCCCNCc1ccccc1SC
2: Clc1cccc(CNCCCCCCNCCCCCCCCNCCCCCCNCc2cccc(Cl)c2)c1
# input Which item exceeds the other in Kb, 1 or 2 ? Respond with the label that goes with your answer.
# output 2
(2: 2.29 µM, 1: 0.589 µM)

----------
# ASSAY_TARGET: Muscarinic acetylcholine receptor M3 (Cavia porcellus)
# ASSAY_OVERVIEW: Antagonist potency against carbachol induced contractions of isolated guinea pig ileum Muscarinic acetylcholine receptor
# Format: functional, tissue-based
# MEASUREMENT_CONDITIONS: read-out: pA2 (converted)
PROPERTY_NAME: Kb (µM)

1: Cc1ccc(CNCCCCCCNCCCCCCCCNCCCCCCNCc2ccc(C)o2)o1
2: COc1ccccc1CNCCCCCCN(C)CCCCCCCCN(C)CCCCCCNCc1ccccc1OC
3: c1cncc(CNCCCCCCNCCCCCCCCNCCCCCCNCc2cccnc2)c1
4: c1ccc(CNCCCCCCNCCCCCCCCNCCCCCCNCc2ccccn2)nc1
# input With regard to Kb, arrange the entries in ascending order, please. Give your ranking as a list of the labels in the requested order.
# output 2, 1, 4, 3

----------
# ASSAY_TARGET: Muscarinic acetylcholine receptor M2 (Cavia porcellus)
# ASSAY_OVERVIEW: Antagonist potency against carbachol induced inhibition of electrically stimulated guinea pig atria Muscarinic acetylcholine receptor
# MEASUREMENT_CONDITIONS: read-out: pA2 (converted)
PROPERTY_NAME: Kb (nM)

>  <LINE_NOTATION>
Fc1ccc(CNCCCCCCNCCCCCCCCNCCCCCCNCc2ccc(F)cc2)cc1

>  <UNIT_OF_MEASURE>
nM

>  <Kb>
129

$$$$
>  <LINE_NOTATION>
c1ccc(CNCCCCCCNCCCCCCCCNCCCCCCNCc2ccccc2)cc1

>  <UNIT_OF_MEASURE>
nM

>  <Kb>
83.2

$$$$

a: Cc1ccc(CNCCCCCCNCCCCCCCCNCCCCCCNCc2ccc(C)cc2)cc1
b: COc1ccccc1CNCCCCCCNCCCCCCCCCCCCCNCCCCCCNCc1ccccc1OC
# input Given the listed items, does a or b have the lesser reported Kb? # respond with the chosen item's label
# output b
(b: 95.5 nM, a: 166 nM)

----------
# ASSAY_TARGET: Muscarinic acetylcholine receptor M2 (Cavia porcellus)
# ASSAY_OVERVIEW: Antagonist potency against carbachol induced inhibition of electrically stimulated guinea pig atria Muscarinic acetylcholine receptor
# MEASUREMENT_CONDITIONS: read-out: pA2 (converted)
PROPERTY_NAME: Kb (nM)

Below are worked cases with known answers.
>  <LINE_NOTATION>
COc1ccccc1CNCCCCCCCNCCCCCCCCNCCCCCCCNCc1ccccc1OC

>  <PROPERTY_NAME>
Kb

>  <ASSAY_VALUE>
27.5

$$$$
>  <LINE_NOTATION>
COc1ccccc1CNCCCCCCNCCCCCCCCCCCNCCCCCCNCc1ccccc1OC

>  <PROPERTY_NAME>
Kb

>  <ASSAY_VALUE>
37.2

$$$$
>  <LINE_NOTATION>
COc1ccc(CNCCCCCCNCCCCCCCCNCCCCCCNCc2ccc(OC)cc2)cc1

>  <PROPERTY_NAME>
Kb

>  <ASSAY_VALUE>
141

$$$$

A: COc1cccc(CNCCCCCCNCCCCCCCCNCCCCCCNCc2cccc(OC)c2)c1
B: Clc1ccccc1CNCCCCCCNCCCCCCCCNCCCCCCNCc1ccccc1Cl
# input Between the entries labeled A and B , whose measured Kb is lower? Write the label of whichever entry you select.
# output B
(B: 66.1 nM, A: 151 nM)

----------
# ASSAY_TARGET: Muscarinic acetylcholine receptor M2 (Cavia porcellus)
# ASSAY_OVERVIEW: Antagonist potency against carbachol induced inhibition of electrically stimulated guinea pig atria Muscarinic acetylcholine receptor
# MEASUREMENT_CONDITIONS: read-out: pA2 (converted)
PROPERTY_NAME: Kb (µM)

I: COc1ccccc1CNCCCCCNCCCCCCCCNCCCCCNCc1ccccc1OC
II: CSc1ccccc1CNCCCCCCNCCCCCCCCNCCCCCCNCc1ccccc1SC
# input Endpoint returns the identifier whose Kb is numerically larger, either I or II . Give the chosen item's label as your response.
# output I
(I: 0.162 µM, II: 0.0269 µM)

P: Clc1ccc(CNCCCCCCNCCCCCCCCNCCCCCCNCc2ccc(Cl)cc2)cc1
Q: Cc1ccccc1CNCCCCCCNCCCCCCCCNCCCCCCNCc1ccccc1C
# input // select label with min value of measured Kb from [ P , Q ] Could you answer with the label of the item you picked?
# output Q
